Below: a set of entries, each annotated with reported shrunken log2 fold change.
# System: Escherichia coli TOP10;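 further: peptides expressed intracellularly from a pBAD plasmid library in pooled LB shake-flask culture, induced with 0.3% L-arabinose, DNA abundance read by NGS, three biological replicates, DESeq2 with apeglm shrinkage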
# Experimental Details: shrunken log2 fold change of peptide-encoding DNA abundance (4.5 h post-induction vs induction); higher = less antimicrobial activity (less host growth inhibition)
# Stated Conditions: time post-induction: 4.5 h; library: site-saturation at positions 5, 18, 19, 20
Answer with a number only.

# Residue Codes, shrunken log2 fold change
data = [
    ("RRIRNRPPRLPRPRPRPNWWPRP", -0.0262),
    ("RRIRDRPPRLPRPRPRPWKWPRP", 0.0155),
]

[ask] Any idea what shrunken log2 fold change was measured for RRIRFRPPRLPRPRPRPFKAPRP ?
[reply] -0.11

[ask] Also check RRIRLRPPRLPRPRPRPQLLPRP
[reply] -0.0176

[ask] Same question, RRIRPRPPRLPRPRPRPASQPRP this time
[reply] 0.0417

[ask] Same question, RRIRARPPRLPRPRPRPPQTPRP this time
[reply] 0.9

[ask] // same read-out, input: RRIRSRPPRLPRPRPRPKHHPRP
[reply] -0.387

[ask] // same read-out, input: RRIRHRPPRLPRPRPRPEHYPRP
[reply] 0.504
